# System: L1210 leukemia ip in BDF1 mice, survival T/C
# protocol.description: NCI In Vivo Anticancer Drug Screen. Data for tumor model L1210 Leukemia (intraperitoneal) in B6D2F1 (BDF1) mice
# test.context: endpoint: mean survival time; dose: 50.0 mg/kg/injection; schedule: Q01DX001 (ip); vehicle: saline; higher = longer survival
Inconclusive results and toxic doses are left out.
List of T/C values.
metric.name: T/C

> print(dat)
                    structure.smiles.string               val
1  O=C(CCCC(=O)N/N=C/c1ccc(Cl)c(Cl)c1)N/N=C\c1ccc(Cl)c(Cl)c1  116 % of control
2                      O=C1CCc2cc(Br)ccc2O1   92 % of control
3  O=C(/C=C/C(=O)n1ccc2ccccc21)n1ccc2ccccc21   95 % of control
4  Nc1nc(N)c2nc3c(nc2n1)C(=O)N(c1ccc(C(=O)O)cc1)C3  102 % of control
5                  CN(C)N=Nc1n[nH]nc1C(N)=O  102 % of control
6                 CN=C(C#N)c1ccc(OC)c(OC)c1  102 % of control
